# Test system: vCap Cell
# protocol: vCap cell growth inhibition, CellTiter-Glo, 72 h
# Format: cell-based
# measurement_conditions: Homo sapiens, VCaP, 72 h, vCap cells, 72 h culture
property_name: IC50

# count of solved cases: 5
- compound: "CCOC(=O)N1CCc2cc(Cl)cc(N3CCCc4cc(-c5cnn(C)c5)c(C(F)F)cc43)c2C1"
  property_name: "IC50"
  result: "> 1000 nM"
- compound: "CC(=O)N1Cc2cc(C3CCN(C(=O)C(C)O)CC3)cc(N3CCCc4cc(-c5cnn(C)c5)c(C(F)F)cc43)c2C1 (stereo not shown)"
  property_name: "IC50"
  result: "> 1000 nM"
- compound: "CNC(=O)N1Cc2cc([C@H]3CC[C@@H](O)CC3)cc(N3CCCc4cc(-c5cnn(C)c5)c(C(F)F)cc43)c2C1"
  property_name: "IC50"
  result: "> 1000 nM"
- compound: "CNC(=O)N1CCc2cc(N3CCS(=O)(=O)CC3)cc(N3CCCc4cc(-c5cnn(C)c5)c(C(F)F)cc43)c2C1"
  property_name: "IC50"
  result: "> 1000 nM"
- compound: "CCN1CC(c2cc3c(c(N4CCCc5cc(-c6cnn(C)c6)c(C(F)F)cc54)c2)CN(C(C)=O)C3)CCC1=O (stereo not shown)"
  property_name: "IC50"
  result: "< 1000 nM"

For each of the compounds below, state IC50.
1. CC(=O)N1CCc2cc(C3CCN(C)C(=O)C3)cc(N3CCCc4cc(-c5cnn(C)c5)c(C(F)F)cc43)c2C1 (stereo not shown)
2. CNC(=O)N1CCc2cc(C3CCC(O)CC3)cc(N3CCCc4cc(-c5cnn(C)c5)c(C(F)F)cc43)c2C1 (stereo not shown)

Result ::
1: > 1000 nM; 2: < 1000 nM

* * *

Kindly supply the reported pIC50 values for the records listed here.
# Test system: vCap Cell
# protocol: vCap cell growth inhibition, CellTiter-Glo, 72 h
# Type: cell-based
# measurement_conditions: Homo sapiens, VCaP, 72 h, vCap cells, 72 h culture
pIC50: −log10 of the molar value.

Known pIC50 results, listed for orientation:
- compound: "CC(=O)N1Cc2cc(C3CCC(=O)N(CC(C)(C)O)C3)cc(N3CCCc4cc(-c5cnn(C)c5)c(C(F)F)cc43)c2C1 (stereo not shown) [Compound M001231]"
  pIC50: "> 6.00"
- compound: "CC(=O)N1CCc2cc(Cl)cc(N3CCCc4cc(-c5cnn(C)c5)c(C(F)F)cc43)c2C1 [Compound M001208]"
  pIC50: "< 6.00"
- compound: "CC(=O)N1Cc2cc(-c3ccn(C)c(=O)c3)cc(N3CCCc4cc(-c5cnn(C)c5)c(C(F)F)cc43)c2C1 [Compound M001128]"
  pIC50: "< 6.00"

Query :: Looking for the measured pIC50 of CNC(=O)N1CCc2cc([C@@H]3CCC(=O)N(C)C3)cc(N3CCCc4cc(-c5cnn(C)c5)c(C(F)F)cc43)c2C1 [Compound M001235] , can you help?
Result :: > 6.00

* * *

# Test system: vCap Cell
# protocol: vCap cell growth inhibition, CellTiter-Glo, 72 h
# Assay type: cell-based
# measurement_conditions: Homo sapiens, VCaP, 72 h, vCap cells, 72 h culture
pIC50: −log10 of the molar value.
Would you kindly list pIC50 for each of these compounds?

- compound: "CNC(=O)N1Cc2cc(C3CC4CCC(C3)N4C(=O)NC)cc(N3CCCc4cc(-c5cnn(C)c5)c(C(F)F)cc43)c2C1 (stereo not shown) [Compound M001116]"
  pIC50: "< 6.00"
- compound: "CC(=O)N1Cc2cc(C3CCN(CC(C)O)C(=O)C3)cc(N3CCCc4cc(-c5cnn(C)c5)c(C(F)F)cc43)c2C1 (stereo not shown) [Compound M001190]"
  pIC50: "> 6.00"
- compound: "CNC(=O)N1CCc2cc(C3CC4CCC(C3)N4C)cc(N3CCCc4cc(-c5cnn(C)c5)c(C(F)F)cc43)c2C1 (stereo not shown) [Compound M001035]"
  pIC50: "< 6.00"
- compound: "CC(=O)N1Cc2cc(C3CCC([S@@](C)(=N)=O)CC3)cc(N3CCCc4cc(-c5cnn(C)c5)c(C(F)F)cc43)c2C1 (stereo partly shown) [Compound M001328]"
  pIC50: "< 6.00"
- compound: "CNC(=O)N1Cc2cc(C3=CC4CCC(C3)N4)cc(N3CCCc4cc(-c5cnn(C)c5)c(C(F)F)cc43)c2C1 (stereo not shown) [Compound M001098]"
  pIC50: "< 6.00"
- compound: "CC(=O)N1Cc2cc(-c3cc[nH]c(=O)c3)cc(N3CCCc4cc(-c5cnn(C)c5)c(C(F)F)cc43)c2C1 [Compound M001156]"
  pIC50: "< 6.00"
- compound: "CC(=O)N1CCc2cc([C@H]3CC[C@H](O)CC3)cc(N3CCCc4cc(-c5cnn(C)c5)c(C(F)F)cc43)c2C1 [Compound M001179]"
  pIC50: "< 6.00"
- compound: "CNC(=O)N1CCc2cc(C3=CC4CCC(C3)N4)cc(N3CCCc4cc(-c5cnn(C)c5)c(C(F)F)cc43)c2C1 (stereo not shown) [Compound M001088]"
  pIC50: "< 6.00"
- compound: "COC(=O)N1CCc2cccc(N3CCCc4cc(-c5cnn(C)c5)c(C(F)F)cc43)c2C1 [Compound M001202]"
  pIC50: "< 6.00"
- compound: "CNC(=O)N1CCc2cc(C3CCC(=O)N(CC(C)(C)O)C3)cc(N3CCCc4cc(-c5cnn(C)c5)c(C(F)F)cc43)c2C1 (stereo not shown) [Compound M001230]"
  pIC50: "> 6.00"

State the recorded pIC50 for every item in the following list.
1. CNC(=O)N1Cc2cc(C3CCN(C(C)=O)CC3)cc(N3CCCc4cc(-c5cnn(C)c5)c(C(F)F)cc43)c2C1 [Compound M001161]
2. CON1CCC(c2cc3c(c(N4CCCc5cc(-c6cnn(C)c6)c(C(F)F)cc54)c2)CN(C(=O)OC(C)(C)C)C3)CC1 [Compound M001275]
3. CNC(=O)N1CCc2cc(C3CCN(C(=O)C4CNC4)CC3)cc(N3CCCc4cc(-c5cnn(C)c5)c(C(F)F)cc43)c2C1 [Compound M001083]

Result ::
1: > 6.00; 2: < 6.00; 3: < 6.00
